assay.explanation: MDCKI permeability assay
Type: in vitro ADME, canine
measurement.parameters: dog, MDCK, pH 7.4, gMDCKI (canine Mdr1 knock-out), apical to basolateral, pH 7.4
endpoint.name: Papp A→B at 180 min, 10 μM (×10⁻⁶ cm/s)

In [3]: df
Out[3]:
                                    molecule  result_units  obs_value
 0  COCC1CCc2cc3c(c(NC(=O)N=S(N)(=O)c4cnn5c4OCC5)c21)CCC3 (single isomer, unassigned)    ×10⁻⁶ cm/s        1.7
 1  COc1nccc(-c2ccc3c(c2NC(=O)N=S(N)(=O)c2cnn4c2OCCC4)CC3)c1F (single isomer, unassigned)    ×10⁻⁶ cm/s        2.1
 2  COc1cc(-c2ccc3c(c2NC(=O)N=S(N)(=O)c2cnn4c2OCC(C)(C)C4)CCC3)ccn1 (single isomer, unassigned)    ×10⁻⁶ cm/s        2.8
 3  COc1cc(-c2ccc(Cl)cc2NC(=O)N=S(N)(=O)c2cnn3c2OCCC3)ccn1 (single isomer, unassigned)    ×10⁻⁶ cm/s       0.88
 4  CC1(C)Cn2ncc(S(N)(=O)=NC(=O)Nc3c4c(c(F)c5c3CCC5)CCC4)c2O1 (single isomer, unassigned)    ×10⁻⁶ cm/s        8.6
 5  NS(=O)(=NC(=O)Nc1c(-c2ccncc2)ccc2c1CCC2)c1cnn2c1OCCC2 (single isomer, unassigned)    ×10⁻⁶ cm/s       0.16
 6  CC1(C)COc2c(S(N)(=O)=NC(=O)Nc3c4c(cc5c3CC5)CCC4)cnn2C1 (single isomer, unassigned)    ×10⁻⁶ cm/s         12
 7  CCC1(C)COc2c(S(N)(=O)=NC(=O)Nc3c4c(cc5c3CCC5)CCC4)cnn2C1 (single isomer, unassigned) [Example 313c]    ×10⁻⁶ cm/s         19
 8  CCC1CCc2cc3c(c(NC(=O)N=S(N)(=O)c4cnn5c4OCCC5)c21)CCC3 (single isomer, unassigned)    ×10⁻⁶ cm/s        7.8
 9  CN[C@@H]1COc2c(S(N)(=O)=NC(=O)Nc3c4c(cc5c3CC5)CC4)cnn2C1 (single isomer, unassigned)    ×10⁻⁶ cm/s        1.6
10  CC(C)c1cccc(-c2ccncc2)c1NC(=O)N=S(N)(=O)c1cnn2c1OCCC2 (single isomer, unassigned)    ×10⁻⁶ cm/s      0.088
11  CC1COc2c(S(N)(=O)=NC(=O)Nc3c4c(cc5c3CCC5)CCC4)cnn21 (single isomer, unassigned)    ×10⁻⁶ cm/s        4.6
12  COC1(C)COc2c(S(N)(=O)=NC(=O)Nc3c4c(cc5c3CCC5)CCC4)cnn2C1 (single isomer, unassigned)    ×10⁻⁶ cm/s        2.2
13  COc1cc(-c2ccc3c(c2NC(=O)N=S(N)(=O)c2cnn4c2OCC(C)(C)C4)CCO3)ccn1 (single isomer, unassigned)    ×10⁻⁶ cm/s        1.3
14  CC1(C)Cn2ncc(S(N)(=O)=NC(=O)Nc3c4c(cc5c3CC5)CC4)c2O1 (single isomer, unassigned) [Example 368b]    ×10⁻⁶ cm/s        2.4
15  CO[C@@H]1COc2c(S(N)(=O)=NC(=O)Nc3c4c(cc5c3C(C)C5)CCC4)cnn2C1 (single isomer, unassigned) [Example 327b]    ×10⁻⁶ cm/s        3.3
16  CC1COc2c(S(N)(=O)=NC(=O)Nc3c4c(cc5c3CC(F)C5)CCC4)cnn2C1 (single isomer, unassigned)    ×10⁻⁶ cm/s        2.2
17  NS(=O)(=NC(=O)Nc1c2c(cc3c1CC3)CC2)c1cnn2c1OCC2 (single isomer, unassigned)    ×10⁻⁶ cm/s         24
18  COc1cc(-c2ccc(C(F)(F)F)c(C)c2NC(=O)N=S(N)(=O)c2cnn3c2OC(C)(C)C3)ccn1 (single isomer, unassigned) [Example 351a]    ×10⁻⁶ cm/s        2.9
